Molecular target: BRAF V600E (Homo sapiens, UniProt P15056, V600E)
Sequence (P15056 whole entry V600E): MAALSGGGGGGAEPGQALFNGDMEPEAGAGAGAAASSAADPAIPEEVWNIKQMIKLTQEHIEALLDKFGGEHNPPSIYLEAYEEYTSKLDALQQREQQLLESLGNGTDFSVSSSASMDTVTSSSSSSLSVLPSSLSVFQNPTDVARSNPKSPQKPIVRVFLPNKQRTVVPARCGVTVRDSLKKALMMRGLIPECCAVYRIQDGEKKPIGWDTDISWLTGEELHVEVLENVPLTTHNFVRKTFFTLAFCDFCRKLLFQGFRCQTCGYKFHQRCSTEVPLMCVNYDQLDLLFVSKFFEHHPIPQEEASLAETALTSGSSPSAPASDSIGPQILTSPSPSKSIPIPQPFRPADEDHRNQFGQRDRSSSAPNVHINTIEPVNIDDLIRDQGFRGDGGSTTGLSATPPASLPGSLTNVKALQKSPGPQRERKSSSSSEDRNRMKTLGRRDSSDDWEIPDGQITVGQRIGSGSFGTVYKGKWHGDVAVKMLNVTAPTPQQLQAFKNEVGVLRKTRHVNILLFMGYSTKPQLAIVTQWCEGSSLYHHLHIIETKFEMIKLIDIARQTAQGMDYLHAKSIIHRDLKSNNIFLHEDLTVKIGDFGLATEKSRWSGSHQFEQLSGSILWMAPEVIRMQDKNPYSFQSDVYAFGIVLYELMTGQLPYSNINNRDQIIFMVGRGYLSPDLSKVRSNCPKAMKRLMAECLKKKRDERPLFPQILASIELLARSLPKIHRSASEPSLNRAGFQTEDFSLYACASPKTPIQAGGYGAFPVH
Assay: HiBiT cellular BRAF^V600E degradation assay
Format: cell-based
Conditions: A375.10 cells, 24 h; concentration at which 50% of total cellular BRAF^V600E is degraded
MEASURED_PROPERTY: DC50

So what does the record say about DC50 for CCN(C)S(=O)(=O)Nc1ccc(F)c(Oc2ccc3ncc(C4COC5(CCN(C(=O)CN6CCC(c7ccc(NC8CCC(=O)NC8=O)cc7F)CC6)CC5)C4)cc3c2)c1C#N (stereo not shown) [Example 218] ?
11.3 nM

Now try CCN(C)S(=O)(=O)Nc1ccc(F)c(Oc2ccc3ncn([C@H]4CCC5(CCN(C(=O)CN6CCC(c7ccc(NC8CCC(=O)NC8=O)cc7F)CC6)CC5)C4)c(=O)c3c2)c1C#N (single isomer, unassigned) [Example 40] .
8.13 nM

Now try CCN(C)S(=O)(=O)Nc1ccc(F)c(Oc2ccc3ncn([C@H]4COC5(CCN(C(=O)CN6CCC(c7ccc(NC8CCC(=O)NC8=O)cc7F)CC6)CC5)C4)c(=O)c3c2Cl)c1C#N (single isomer, unassigned) [Example 77] .
31.8 nM

Now try N#Cc1c(NS(=O)(=O)N2CCC2)ccc(F)c1Oc1ccc2ncn(-c3cnc(N4CCN(C(=O)CN5CCC(c6ccc(N[C@H]7CCC(=O)NC7=O)cc6F)CC5)CC4)nc3)c(=O)c2c1 [Example 130] .
16.5 nM

Now try CO[C@H]1CCN(S(=O)(=O)Nc2ccc(F)c(Oc3ccc4ncn([C@H]5COC6(CCN(C(=O)CC7(O)CCN(c8cc9c(cc8F)c(N8CCC(=O)NC8=O)nn9C)CC7)CC6)C5)c(=O)c4c3)c2C#N)C1 [Example 176] .
20.5 nM

Now try CCN(C)S(=O)(=O)Nc1ccc(F)c(Oc2ccc3ncn(-c4cnc(N5CCN(C(=O)CN6CCC(c7ccc(N[C@@H]8CCC(=O)NC8=O)cc7F)CC6)CC5)nc4)c(=O)c3c2N)c1C#N [Example 101] .
27.7 nM

Now try CCN(C)S(=O)(=O)Nc1ccc(F)c(Oc2ccc3ncn(-c4cnc(N5CCN(C(=O)CN6CCC(c7ccc(N[C@H]8CCC(=O)NC8=O)cc7F)CC6)CC5)nc4)c(=O)c3c2)c1F [Example 140] .
27.8 nM

Now try CC(C)S(=O)(=O)Nc1ccc(F)c(Oc2ccc3ncn(-c4cnc(N5CCN(C(=O)CN6CCC(c7ccc(N[C@@H]8CCC(=O)NC8=O)cc7F)CC6)CC5)nc4)c(=O)c3c2)c1C#N [Example 118] .
18.7 nM

Now try CCN(C)S(=O)(=O)Nc1ccc(F)c(Oc2ccc3ncn(CC4COC5(CCN(C(=O)CN6CCC(c7ccc(NC8CCC(=O)NC8=O)cc7F)CC6)CC5)C4)c(=O)c3c2)c1C#N (stereo not shown) [Example 36] .
51.3 nM

Now try CCN(C)S(=O)(=O)Nc1ccc(F)c(Oc2ccc3ncn([C@H]4COC5(CCN(C(=O)CC6(O)CCN(c7cc8c(cc7F)c(N7CCC(=O)NC7=O)nn8C)CC6)CC5)C4)c(=O)c3c2N)c1C#N [Example 182] .
16.2 nM

---

Molecular target: BRAF V600E (Homo sapiens, UniProt P15056, V600E)
Assay: HiBiT cellular BRAF^V600E degradation assay
Type: cell-based
Settings: A375.10 cells, 24 h; concentration at which 50% of total cellular BRAF^V600E is degraded
What DC50 was measured for each of the following?

So what does the record say about DC50 for O=C1CC[C@H](Nc2ccc(C3CCN(CC(=O)N4CCN(c5ncc(-n6cnc7ccc(Oc8c(F)ccc(NS(=O)(=O)C9CCCC9)c8F)cc7c6=O)cn5)CC4)CC3)c(F)c2)C(=O)N1 [Example 138] ?
17.2 nM

Now try CN(C1CC1)S(=O)(=O)Nc1ccc(F)c(Oc2ccc3ncn(-c4cnc(N5CCN(C(=O)CN6CCC(c7ccc(N[C@@H]8CCC(=O)NC8=O)cc7F)CC6)CC5)nc4)c(=O)c3c2)c1C#N [Example 126] .
22.2 nM

Now try Cn1nc(N2CCC(=O)NC2=O)c2cc(F)c(N3CCC(O)(CC(=O)N4CCC5(CC4)C[C@@H](n4cnc6ccc(Oc7c(F)ccc(NS(=O)(=O)C8CCC8)c7C#N)cc6c4=O)CO5)CC3)cc21 [Example 198] .
28.7 nM

Now try CCN(C)S(=O)(=O)Nc1ccc(F)c(Oc2ccc3ncc([C@H]4COC5(CCN(C(=O)CC6(O)CCN(c7cc8c(cc7F)c(N7CCC(=O)NC7=O)nn8C)CC6)CC5)C4)c(OC)c3c2)c1C#N (single isomer, unassigned) [Example 225] .
> 5000 nM

Now try N#Cc1c(NS(=O)(=O)C2CCCC2)ccc(F)c1Oc1ccc2ncn(-c3cnc(N4CCN(C(=O)CN5CCC(c6ccc(N[C@@H]7CCC(=O)NC7=O)cc6F)CC5)CC4)nc3)c(=O)c2c1 [Example 108] .
17.8 nM

Now try CCN(C)S(=O)(=O)Nc1ccc(F)c(Oc2ccc3ncn([C@H]4COC5(CCN(C6CCC(c7ccc(NC8CCC(=O)NC8=O)cc7F)CC6)CC5)C4)c(=O)c3c2)c1C#N (single isomer, unassigned) [Example 83] .
16.3 nM

Now try CCN(C)S(=O)(=O)Nc1ccc(F)c(Oc2ccc3ncc(C4COC5(CCN(C(=O)CC6(O)CCN(c7cc8c(cc7F)c(N7CCC(=O)NC7=O)nn8C)CC6)CC5)C4)nc3c2)c1C#N (single isomer, unassigned) [Example 222] .
20 nM

Now try CCN(C)S(=O)(=O)Nc1ccc(F)c(Oc2ccc3ncn(-c4cnc(N5CCN(C(=O)CN6CCC(c7cc(OC)c(NC8CCC(=O)NC8=O)cc7F)CC6)CC5)nc4)c(=O)c3c2)c1C#N (stereo not drawn) [Example 88] .
15.1 nM

Now try CCN(C)S(=O)(=O)Nc1ccc(F)c(Oc2ccc3ncc(C4CCC5(CCN(C(=O)CN6CCC(c7ccc(NC8CCC(=O)NC8=O)cc7F)CC6)CC5)C4)nc3c2)c1C#N (stereo not drawn) [Example 220] .
47 nM
